Tested on: Escherichia coli ATCC 25922
protocol_details: MIC, broth microdilution (CLSI), reference strain
measurement_context: CAMHB
Numbered stars: 1 amine (or outer) side, 2 acyl side, 3 side chain; on linkers, the order of the positions; unused ones are H or OH. Square brackets hold non-standard residues; d marks the D form. Peptide text beside a SMILES is read from it. * marks the point of attachment. Phe(3,4-(OMe)2) = COc1ccc(C[C@H](N)C(=O)O)cc1OC; X1 = O=C([C@H](Cc1cc(F)c(F)cc1F)N[*:1])[*:2]; Abu(4,4,4-F3) = N[C@@H](CC(F)(F)F)C(=O)O; Phe(3-F) = N[C@@H](Cc1cccc(F)c1)C(=O)O; Dab(3S-OH) = NC[C@H](O)[C@H](N)C(=O)O; Lys(iPr) = CC(C)NCCCC[C@H](N)C(=O)O; 2Pal = N[C@@H](Cc1ccccn1)C(=O)O; ΔZArg = N=C(N)NCC/C=C(\N)C(=O)O; aThr = C[C@H](O)[C@H](N)C(=O)O; dOrn = NCCC[C@@H](N)C(=O)O; Orn = NCCC[C@H](N)C(=O)O; Aze = O=C(O)[C@@H]1CCN1; Dab = NCC[C@H](N)C(=O)O; NH(CH2)4NH2 = NCCCCN*
reported_property: Ec: MIC Escherichia coli ATCC 25922

compound: C[C@H](NC(=O)[C@@H](NC(=O)[C@@H](N)CCCCN)[C@@H](O)CN)C(=O)NCC(=O)N[C@H](CCCN)C(=O)N1CCC[C@H]1C(=O)N[C@@H](Cc1cc(F)c(F)cc1F)C(=O)N[C@@H](CCCCN)C(=O)N/C(=C\CCNC(=N)N)C(=O)O [24.77] (H-K[Dab(3S-OH)]AG[dOrn]P[X1]K[ΔZArg]-OH)
reported_property: Ec: MIC Escherichia coli ATCC 25922
recorded_result: ++ (≤8 μg/mL)
//
compound: C[C@H](NC(=O)[C@@H](NC(=O)[C@@H](N)CCCCN)[C@@H](O)CN)C(=O)NCC(=O)N[C@H](CCCN)C(=O)N1CCC[C@H]1C(=O)N[C@@H](Cc1ccccn1)C(=O)N[C@@H](CCCCN)C(=O)N/C(=C\CCNC(=N)N)C(=O)O [24.106] (H-K[Dab(3S-OH)]AG[dOrn]P[2Pal]K[ΔZArg]-OH)
reported_property: Ec: MIC Escherichia coli ATCC 25922
recorded_result: + (≤32 μg/mL)
//
compound: N=C(N)NCC/C=C(\NC(=O)[C@H](CCCCN)NC(=O)[C@H](Cc1c[nH]c2ccccc12)NC(=O)[C@@H]1CCCN1C(=O)[C@@H](CCCN)NC(=O)CNC(=O)[C@H](CCCN)NC(=O)[C@@H](NC(=O)[C@@H](N)CCCCN)[C@@H](O)CN)C(=O)O [211.11] (H-K[Dab(3S-OH)][Orn]G[dOrn]PWK[ΔZArg]-OH)
reported_property: Ec: MIC Escherichia coli ATCC 25922
recorded_result: ++ (≤8 μg/mL)
//
compound: C[C@H](O)[C@H](NC(=O)[C@H](CCN)NC(=O)[C@@H](N)CCCCN)C(=O)NCC(=O)N[C@H](CCCN)C(=O)N1CCC[C@H]1C(=O)N[C@@H](Cc1cnc[nH]1)C(=O)N[C@@H](CCCCN)C(=O)N/C(=C\CCNC(=N)N)C(=O)N[C@@H](CCCCN)C(=O)NCCCCN [15.1] (H-K[Dab][aThr]G[dOrn]PHK[ΔZArg]K-{NH(CH2)4NH2})
reported_property: Ec: MIC Escherichia coli ATCC 25922
recorded_result: − (>32 μg/mL)
//
compound: CC(C)C[C@H](NC(=O)[C@@H](NC(=O)[C@@H](N)CCCCN)[C@@H](O)CN)C(=O)NCC(=O)N[C@H](CCCN)C(=O)N1CCC[C@H]1C(=O)N[C@@H](Cc1cnc[nH]1)C(=O)N[C@@H](CCCCN)C(=O)N/C(=C\CCNC(=N)N)C(=O)N[C@@H](CCCCN)C(=O)NCCCCN [29.1] (H-K[Dab(3S-OH)]LG[dOrn]PHK[ΔZArg]K-{NH(CH2)4NH2})
reported_property: Ec: MIC Escherichia coli ATCC 25922
recorded_result: − (>32 μg/mL)
//
compound: C[C@H](NC(=O)[C@@H](NC(=O)[C@@H](N)CCCCN)[C@@H](O)CN)C(=O)NCC(=O)N[C@H](CCCN)C(=O)N1CC[C@H]1C(=O)N[C@@H](Cc1cccc(F)c1)C(=O)N[C@@H](CCCCN)C(=O)N/C(=C\CCNC(=N)N)C(=O)O [24.71] (H-K[Dab(3S-OH)]AG[dOrn][Aze][Phe(3-F)]K[ΔZArg]-OH)
reported_property: Ec: MIC Escherichia coli ATCC 25922
recorded_result: + (≤32 μg/mL)
//
compound: C[C@H](NC(=O)[C@@H](NC(=O)[C@@H](N)CCCN)[C@@H](O)CN)C(=O)NCC(=O)N[C@H](CCCN)C(=O)N1CCC[C@H]1C(=O)N[C@@H](Cc1cnc[nH]1)C(=O)N[C@@H](CCCCN)C(=O)N/C(=C\CCNC(=N)N)C(N)=O [24.150] (H-[Orn][Dab(3S-OH)]AG[dOrn]PHK[ΔZArg]-NH2)
reported_property: Ec: MIC Escherichia coli ATCC 25922
recorded_result: + (≤32 μg/mL)
//
compound: COc1ccc(C[C@H](NC(=O)[C@@H]2CCCN2C(=O)[C@@H](CCCN)NC(=O)CNC(=O)[C@H](CCN)NC(=O)[C@@H](NC(=O)[C@@H](N)CCCCN)[C@@H](O)CN)C(=O)N[C@@H](CCCCN)C(=O)N/C(=C\CCNC(=N)N)C(=O)O)cc1OC [21.5] (H-K[Dab(3S-OH)][Dab]G[dOrn]P[Phe(3,4-(OMe)2)]K[ΔZArg]-OH)
reported_property: Ec: MIC Escherichia coli ATCC 25922
recorded_result: ++ (≤8 μg/mL)
//
compound: C[C@H](NC(=O)[C@@H](NC(=O)[C@@H](N)CCCCN)[C@@H](O)CN)C(=O)NCC(=O)N[C@H](CCCN)C(=O)N1CCC[C@H]1C(=O)N[C@@H](Cc1cnc[nH]1)C(=O)N[C@@H](CCCCN)C(=O)N/C(=C\CCNC(=N)N)C(=O)N[C@@H](CCCCN)C(=O)O [24.62] (H-K[Dab(3S-OH)]AG[dOrn]PHK[ΔZArg]K-OH)
reported_property: Ec: MIC Escherichia coli ATCC 25922
recorded_result: + (≤32 μg/mL)
//
compound: N=C(N)NCC/C=C(\NC(=O)[C@H](CCCCN)NC(=O)[C@H](CC(F)(F)F)NC(=O)[C@@H]1CCCN1C(=O)[C@@H](CCCN)NC(=O)CNC(=O)[C@@H](NC(=O)[C@@H](NC(=O)[C@@H](N)CCCCN)[C@@H](O)CN)[C@@H](O)CN)C(=O)O [22.40] (H-K[Dab(3S-OH)][Dab(3S-OH)]G[dOrn]P[Abu(4,4,4-F3)]K[ΔZArg]-OH)
reported_property: Ec: MIC Escherichia coli ATCC 25922
recorded_result: + (≤32 μg/mL)
//
compound: C[C@H](NC(=O)[C@@H](NC(=O)[C@@H](NC(=O)[C@@H](N)CCCCN)[C@@H](O)CN)[C@@H](O)CN)C(=O)N[C@H](CCCN)C(=O)N1CCC[C@H]1C(=O)N[C@@H](Cc1cnc[nH]1)C(=O)N[C@@H](CCCCN)C(=O)N/C(=C\CCNC(=N)N)C(=O)N[C@@H](CCCCN)C(=O)NCCCCN [22.24] (H-K[Dab(3S-OH)][Dab(3S-OH)]A[dOrn]PHK[ΔZArg]K-{NH(CH2)4NH2})
reported_property: Ec: MIC Escherichia coli ATCC 25922
recorded_result: − (>32 μg/mL)
//
compound: CC(C)NCCCC[C@H](N)C(=O)N[C@H](C(=O)N[C@@H](C)C(=O)NCC(=O)N[C@H](CCCN)C(=O)N1CCC[C@H]1C(=O)N[C@@H](Cc1cnc[nH]1)C(=O)N[C@@H](CCCCN)C(=O)N/C(=C\CCNC(=N)N)C(=O)O)[C@@H](O)CN [24.147] (H-[Lys(iPr)][Dab(3S-OH)]AG[dOrn]PHK[ΔZArg]-OH)
reported_property: Ec: MIC Escherichia coli ATCC 25922
recorded_result: − (>32 μg/mL)

The origin of these recorded values is patent US10626144B2.
